Where do these numbers come from? They come from paper PMC10397247.

Below, each of the binders is paired with its reported interaction score value.
Target: T1, 4H683-bA
T1 chain: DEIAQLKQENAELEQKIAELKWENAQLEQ
Experiment: two-hybrid library CCNG1;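 also: natural log of median RNA to DNA barcode read ratio; higher means stronger binding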

| BINDER | interaction score |
| --- | --- |
| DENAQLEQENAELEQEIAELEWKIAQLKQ [4H1158-bA] | -1.19 |
| DEIAQLKQENAELEQKIAELKWENAQLEQ [4H683-bA] | -0.189 |
| DKNAQLKQKNAELKQKIAELKWEIAQLEQ [4H4073-bA] | -0.684 |
| DEIAQLEQKNAELKQEIAELKWEIAQLEQ [4H457-bA] | 0.308 |
| DKIAQLKQEIAELKQEIAELEWENAQLEQ [4H2627-bA] | -0.856 |
| DEIAQLEQEIAELKQKNAELEWKIAQLKQ [4H118-bA] | -0.721 |
| DKIAQLKQEIAELEQENAELKWEIAQLKQ [4H2586-bA] | 0.537 |
